- Study system: human recombinant 5-LOX (Homo sapiens, UniProt P09917)
- Construct: purchased
- Sequence (P09917 whole entry): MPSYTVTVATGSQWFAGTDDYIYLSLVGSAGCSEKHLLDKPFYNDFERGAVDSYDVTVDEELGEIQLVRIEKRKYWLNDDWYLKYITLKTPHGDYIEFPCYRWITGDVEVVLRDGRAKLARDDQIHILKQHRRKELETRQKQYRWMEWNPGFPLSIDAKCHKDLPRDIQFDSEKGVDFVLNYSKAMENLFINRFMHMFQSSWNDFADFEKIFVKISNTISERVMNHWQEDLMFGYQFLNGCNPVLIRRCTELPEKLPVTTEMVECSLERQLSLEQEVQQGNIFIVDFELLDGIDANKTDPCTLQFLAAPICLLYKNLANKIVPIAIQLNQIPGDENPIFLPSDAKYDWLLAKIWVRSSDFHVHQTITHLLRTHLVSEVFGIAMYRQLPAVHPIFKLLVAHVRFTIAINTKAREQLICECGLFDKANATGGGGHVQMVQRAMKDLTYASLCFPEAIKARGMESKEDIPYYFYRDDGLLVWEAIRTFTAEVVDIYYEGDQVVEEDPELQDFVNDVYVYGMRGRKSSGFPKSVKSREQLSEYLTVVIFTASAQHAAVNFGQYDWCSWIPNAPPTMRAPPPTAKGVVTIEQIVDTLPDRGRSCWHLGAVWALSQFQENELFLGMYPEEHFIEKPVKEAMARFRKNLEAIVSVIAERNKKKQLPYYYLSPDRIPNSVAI
- Measurement notes: 5-Lipoxygenase inhibitory assay (5-LOX assay kit)
- Assay type: biochemical
Measured property: IC50 (µM)
Numbers only, in µM.

Prompt: Can you look up the measured IC50 of COc1ccc2cc([C@H](C)C(=O)O)ccc2c1 [Naproxen, S-naproxen] for me?
Completion: 36.5

* * *

- Study system: COX2 (Homo sapiens, UniProt P35354)
- Construct: purchased
- Sequence (P35354 18-604): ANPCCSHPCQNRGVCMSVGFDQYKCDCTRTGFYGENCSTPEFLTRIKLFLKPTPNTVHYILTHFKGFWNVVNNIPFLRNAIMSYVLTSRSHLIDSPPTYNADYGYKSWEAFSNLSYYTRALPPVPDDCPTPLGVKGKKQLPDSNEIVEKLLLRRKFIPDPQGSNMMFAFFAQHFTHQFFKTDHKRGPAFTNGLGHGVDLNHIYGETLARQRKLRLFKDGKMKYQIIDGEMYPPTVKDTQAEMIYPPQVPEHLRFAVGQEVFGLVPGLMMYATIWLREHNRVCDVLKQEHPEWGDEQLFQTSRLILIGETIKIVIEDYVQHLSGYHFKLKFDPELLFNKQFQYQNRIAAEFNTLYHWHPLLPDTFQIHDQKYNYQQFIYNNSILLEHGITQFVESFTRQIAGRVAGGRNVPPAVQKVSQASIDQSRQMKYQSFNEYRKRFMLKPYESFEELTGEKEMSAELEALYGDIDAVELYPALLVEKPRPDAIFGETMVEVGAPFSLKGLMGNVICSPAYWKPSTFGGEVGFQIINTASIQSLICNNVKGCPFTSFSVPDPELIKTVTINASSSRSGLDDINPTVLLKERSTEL
- Measurement notes: Cyclooxygenase (COX2) inhibitory assay, ovine/human COX inhibitor assay kit
- Assay type: biochemical
Measured property: IC50 (µM)
Answers are plain numbers, in µM.

Prompt: Can you look up the measured IC50 of COc1ccc2cc([C@H](C)C(=O)O)ccc2c1 for me?
Completion: 20.1
